// data source = BindingDB's records for patent US20240083872

Assayed Target: 5-hydroxytryptamine receptor 2A (Homo sapiens, UniProt P28223)
Sequence (P28223 whole entry): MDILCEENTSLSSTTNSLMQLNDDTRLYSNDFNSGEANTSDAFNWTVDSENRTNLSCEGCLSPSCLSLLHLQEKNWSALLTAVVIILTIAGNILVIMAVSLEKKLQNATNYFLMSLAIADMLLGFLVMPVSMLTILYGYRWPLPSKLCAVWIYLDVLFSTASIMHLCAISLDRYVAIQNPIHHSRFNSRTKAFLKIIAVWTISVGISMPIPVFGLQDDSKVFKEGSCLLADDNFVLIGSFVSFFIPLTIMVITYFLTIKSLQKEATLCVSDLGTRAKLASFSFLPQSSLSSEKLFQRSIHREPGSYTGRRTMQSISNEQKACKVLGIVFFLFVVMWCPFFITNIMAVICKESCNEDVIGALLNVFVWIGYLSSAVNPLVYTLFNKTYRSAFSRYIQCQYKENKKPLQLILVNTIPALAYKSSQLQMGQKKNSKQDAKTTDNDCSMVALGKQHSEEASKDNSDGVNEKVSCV
Parameter: pKi
Answers are plain numbers, as −log10 of the molar value.

Param item: CC(C)CNc1ccc(CN(Cc2ccn(C)n2)C(=O)NC2CCN(C)CC2)cc1 [US20240083872, Compound I-030] ; param system: 5-hydroxytryptamine receptor 2A (Homo sapiens, UniProt P28223); output pKi: 8.66

---

Assayed Target: 5-hydroxytryptamine receptor 2C (Homo sapiens, UniProt P28335)
Sequence (P28335 whole entry): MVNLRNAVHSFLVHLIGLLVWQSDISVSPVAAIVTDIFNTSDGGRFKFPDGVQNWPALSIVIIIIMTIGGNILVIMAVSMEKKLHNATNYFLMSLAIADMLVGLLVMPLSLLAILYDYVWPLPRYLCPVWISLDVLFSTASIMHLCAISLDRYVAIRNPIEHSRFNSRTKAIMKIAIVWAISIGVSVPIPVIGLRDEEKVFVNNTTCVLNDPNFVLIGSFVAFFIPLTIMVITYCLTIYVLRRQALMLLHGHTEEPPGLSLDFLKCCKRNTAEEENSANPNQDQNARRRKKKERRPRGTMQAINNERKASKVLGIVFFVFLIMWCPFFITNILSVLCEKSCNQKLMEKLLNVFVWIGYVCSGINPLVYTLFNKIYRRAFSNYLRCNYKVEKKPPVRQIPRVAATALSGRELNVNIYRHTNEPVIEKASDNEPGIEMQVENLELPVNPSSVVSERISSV
Parameter: pKi
One number for each entry, as −log10 of the molar value.

The recorded pKi for CC(C)CNc1ccc(CN(Cc2ccn(C)n2)C(=O)NC2CCN(C)CC2)cc1 is 8.11
